Tested on: human cancer cell lines
Assay: Anticancer activity in human cancer cell lines, not tied to one cell line
Format: cell-based
Settings: human cancer cell lines, 72-hour exposure

| compound | anticancer activity, in words |
| --- | --- |
| CCC[C@]12CC34SC(=S)SC(C)(C(=O)N3C1N(S(=O)(=O)c1ccccc1)c1ccccc12)N(C)C4=O (some centres unmarked) | inactive |
| CN1C(=O)[C@]23C[C@]4(c5c[nH]c6ccccc56)c5ccccc5N(S(=O)(=O)c5ccccc5)[C@@H]4N2C(=O)[C@@]1(C)SS3 | inactive |

====

System: HeLa (cervical carcinoma)
Assay: 72-hour IC50 determination for adherent cells using sulforhodamine B (SRB)
Format: cell-based, human
Conditions: Homo sapiens, HeLa, 72 h, read-out: HeLa, 72-hour IC50 (Table E1-2)
measured_metric: IC50 (nM)
Enter your answer as a number in nM; do not include the unit.

**Q:** GET /values?readout=IC50&system=HeLa (cervical carcinoma)&item= CN1C(=O)[C@@]23C[C@]4(c5cc[nH]c5)c5ccccc5N(S(=O)(=O)c5ccccc5)[C@@H]4N2C(=O)[C@@H]1SS3 [Compound 32]
**A:** 26.8

**Q:** Query IC50 on HeLa (cervical carcinoma) for CN1C(=O)[C@@]23C[C@]4(c5c[nH]c6ccccc56)c5ccccc5N[C@@H]4N2C(=O)[C@@H]1SS3 [Compound 10, (+)-12-deoxybionectin A]
**A:** 117
